Exercise: state measured mass density for each of the compounds provided.
Measurement conditions: 338.15 K; 101.33 kPa; Liquid; Vibrating tube method
± gives the expanded uncertainty stated by the source.
Reply with the number and its unit after it.

Asked: // query mass density value for entry CCCCCCCC(=O)[O-].CCCCCC[NH+](CCCCCC)CCCCCC [trihexylammonium octanoate]
Given back: 818.87 ± 3.9 kg/m3

Asked: Given the compound CCCCCCCC(=O)[O-].CCCCCCCC[NH+](CCCCCCCC)CCCCCCCC [trioctylammonium octanoate] , what is its reported mass density?
Given back: 818.47 ± 3.9 kg/m3

Asked: # query: mass density of entry CCCC(=O)[O-].CCCCCC[NH+](CCCCCC)CCCCCC [trihexylammonium butanoate]
Given back: 814.54 ± 3.9 kg/m3

Asked: Consider the compound CCCCCC(=O)[O-].CCCCCC[NH+](CCCCCC)CCCCCC [trihexylammonium hexanoate] and give its measured mass density.
Given back: 817.03 ± 3.9 kg/m3

Asked: mass density for CCCC(=O)[O-].CCCCCCCC[NH+](CCCCCCCC)CCCCCCCC [trioctylammonium butanoate] ?
Given back: 813.96 ± 3.9 kg/m3

Asked: Requested read-out: mass density. Entry: CCCCCC(=O)[O-].CCCCCCCC[NH+](CCCCCCCC)CCCCCCCC [trioctylammonium hexanoate]
Given back: 816.62 ± 3.9 kg/m3
